PROTOCOL_DETAILS: NCI Yeast Anticancer Drug Screen. Data for the bub3 strain (AID 167)
DETAILS: S. cerevisiae bub3 mutant strain, at 50.0 µM
The panel holds about 79,000 compounds, 15% with a hit somewhere; the sample as a whole holds those more often. Active and inactive are the calls of the source. No stated cut-off is given here; in the data, active means growth inhibition above about 70%; inactive means the rest.
Respond using exactly one of the listed classes: true (1) for active, false (0) for inactive

The examples below pair each entry with its known result.
Cc1cc(N(CCOS(C)(=O)=O)CCOS(C)(=O)=O)ccc1C=Nc1cc(Br)c(O)c(Br)c1; false (0)
C[n+]1cccc2c1-c1ccccc1C2=O; false (0)
COc1c(C(=O)/C(=N/Nc2ccccc2)C(C)=O)c(O)c(OC)c2occc12; false (0)
CCCC(/C=N/N=C(N)N)=N\N=C(N)N; false (0)
COc1cc(/C=C2\S/C(=N/Nc3nc(-c4ccc(Br)cc4)cs3)NC2=O)cc(OC)c1OC; true (1)
Cc1ccc(C(O)CCN2CCOCC2)c(C)c1 (stereo not given); false (0)
OC(c1cc(-c2ccccc2)nc2cc(Cl)ccc12)C1CCCCN1 (stereo not given); true (1)
c1ccc(Cn2nnc(-c3ccccc3)c2-c2ccccc2)cc1; true (1)
O=C1c2cc([N+](=O)[O-])cc3cc([N+](=O)[O-])cc(c23)C(=O)N1CCCNCCNCCCN1C(=O)c2cc([N+](=O)[O-])cc3cc([N+](=O)[O-])cc(c23)C1=O; true (1)

Continue with the next compound.
Called result for Clc1ccc(N2CCN(CCCN3CCN(c4ccc(Cl)cc4)CC3)CC2)cc1
false (0)
